B1: Receptor-interacting serine/threonine-protein kinase 2, residues 438 to 518; numbered along this chain, O43353 (parent)
chain: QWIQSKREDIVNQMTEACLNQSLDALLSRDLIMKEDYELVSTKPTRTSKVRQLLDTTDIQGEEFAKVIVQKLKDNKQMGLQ

variants of: B1; test: abundance fitness (aPCA) (normalised: wild type 0, dead -1); higher = more abundant; growth selection in yeast, the domain comes from the species named; details: Homo sapiens
Label 1 for high-side abundance fitness (at or above -0.7) and 0 for low-side abundance fitness (below it).

Q: Is abundance fitness at least -0.7? Consider QWIQSKREDIVNQMTEACLNQSLDALLSRDLIMKEDYELVSTRPTRTSKVRQLLDTTDIQGEEFAKVIVQKLKDNKQMGLQ [K43R]
A: 1

Q: Is abundance fitness at least -0.7? Consider QWIQSKREDIVNQMTEACLNQSLDALLSRDLIMKEDYGLVSTKPTRTSKVRQLLDTTDIQGEEFAKVIVQKLKDNKQMGLQ [E38G]
A: 1

Q: Is abundance fitness at least -0.7? Consider QWIQSKREDIVNQMTEACLNQSLDALLSRDLIMKEDYELVSTKPTRTSKVRQLLDTTDIQGEEFAKVMVQKLKDNKQMGLQ [I68M]
A: 1

Q: Is abundance fitness at least -0.7? Consider QWIQSKREDIVNQMTEACLNQSLDALLSRDLIMKEDYELVSTKPTRTSKVRQLLDTTDIQGEEFAKVIVQKLGDNKQMGLQ [K73G]
A: 1

Q: Is abundance fitness at least -0.7? Consider QWIQSKREDIVNQMTEACLNQSLDALLSRDLIMKEDYELVSTKPTRTSKVRQLLDTTDIQGEEFAKVIVQKLKPNKQMGLQ [D74P]
A: 1

Q: Is abundance fitness at least -0.7? Consider QWIQSKREDIVNQMTEACLNQSLDALLSRDLIMKEDYELVSTKPTRTSKQRQLLDTTDIQGEEFAKVIVQKLKDNKQMGLQ [V50Q]
A: 1

Q: Is abundance fitness at least -0.7? Consider QWIQSKREDIVNQMTEACLNQSLDALLSRDLIMKEDYELVSTKPTRTSKVRQLLDTTDIQGEEFAKVIVYKLKDNKQMGLQ [Q70Y]
A: 0

Q: Is abundance fitness at least -0.7? Consider QWIQSKREDIVNQMTEACLNQSLDAVLSRDLIMKEDYELVSTKPTRTSKVRQLLDTTDIQGEEFAKVIVQKLKDNKQMGLQ [L26V]
A: 1

Q: Is abundance fitness at least -0.7? Consider QWIQSKREDIVNQMTEACLNQSLDALLSRDLIMKEDYELVSTKPKRTSKVRQLLDTTDIQGEEFAKVIVQKLKDNKQMGLQ [T45K]
A: 0

Q: Is abundance fitness at least -0.7? Consider QWIQSKREDIVNQMTEACLNQSLDALLSRDLIMKEDYELVSTKPTRTSKVRQLLDTTDIQGEEFAYVIVQKLKDNKQMGLQ [K66Y]
A: 0
